From: PubChem BioAssay (NCI)

- Procedure text: NCI Yeast Anticancer Drug Screen. Data for the mlh1 strain (AID 171);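 also: 0% = growth of vehicle-treated control cultures of the same strain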
- Condition parameters: S. cerevisiae mlh1 strain growth inhibition; at 3.7 µM; active compounds read high
About 79,000 compounds went through this panel and 15% of them were active in at least one assay; those are over-represented in the sample as a whole.
Provide the reported growth inhibition of each item.
Answers are plain numbers, in %.

Compound: CC(C)(C)N=C(NO)c1ccccc1
Scale unit: %
growth inhibition: 1
--
Compound: O=C1CSC(c2cccc(Cl)c2)N1c1ccc(-c2ccc(-n3c(-c4ccccc4)nc4ccccc4c3=O)cc2)cc1 (stereo not given)
Scale unit: %
growth inhibition: 5
--
Compound: CC[n+]1oc(C(=O)c2ccc(Cl)cc2)c(-c2ccccc2)c1-c1ccccc1.[Cl][Fe]([Cl])([Cl])[Cl]
Scale unit: %
growth inhibition: 1
--
Compound: c1ccc(-c2cnc3ccccc3c2)cc1
Scale unit: %
growth inhibition: -9

Kindly review the next compound as well.
// growth inhibition lookup, key: COc1cccc2c1C(=O)c1c(O)c3c(c(O)c1C2=O)CC(O)(C(O)CO)CC3OC1CC(N2CCOCC2)C(O)C(C)O1 (stereo not given) 97

====

- Procedure text: NCI Yeast Anticancer Drug Screen. Data for the wt2 strain (AID 169);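 also: 0% = growth of vehicle-treated yeast cultures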
- Condition parameters: S. cerevisiae wt2 strain growth inhibition; at 3.7 µM; active compounds read high
- Method: Growth inhibition of yeast strains with defined genetic alterations is measured as a screen for potential anti-cancer activity. Selected strains with alterations in DNA damage repair or cell cycle control were exposed to compounds and growth inhibition was measured relative to vehicle treated controls. The strain used in this assay is wt2
Compounds without any hit were thinned out: in the full panel of roughly 79,000, 15% have a hit.
Please respond with reported growth inhibition for every item in the list.
Give bare numbers, in %.

Compound: O=c1[nH]c2ccc(Cl)cc2o1
Scale unit: %
growth inhibition: -27

Compound: Cc1c2cccc(Sc3ccccc3)c2c2c3c(cccc13)[S+](c1ccccc1)C2 (stereo unspecified)
Scale unit: %
growth inhibition: 25

Compound: Cc1c2cc[n+](Cc3ccc(I)cc3)cc2c(C)c2c1[nH]c1ccccc12
Scale unit: %
growth inhibition: -24

Compound: CN1CCN(C(=O)/C=C/C(=O)c2ccccc2)CC1
Scale unit: %
growth inhibition: 10

Compound: Oc1ccc(SCc2ccc(NCc3ccccc3)cc2)cc1
Scale unit: %
growth inhibition: -46

Compound: OCC(CO)C(c1cccc2ccccc12)c1cccc2ccccc12
Scale unit: %
growth inhibition: 3

Compound: Cc1nc(Nc2ccccc2[N+](=O)[O-])sc1C(=O)CC(=O)C(=O)Nc1c(C(C)C)cccc1C(C)C
Scale unit: %
growth inhibition: 0

Compound: O=C(CSC(=S)N1CCCCC1)Nc1nc2c(s1)CCCC2
Scale unit: %
growth inhibition: -3

Compound: CCN(CC)CCN(C)CCc1ccc(Br)cc1
Scale unit: %
growth inhibition: 11

Compound: CCCOC(=O)C(F)C(Br)C(=O)OCCC (stereo unspecified)
Scale unit: %
growth inhibition: 98

Attention now shifts to the item below.
State the recorded growth inhibition for this entry: O=C(NCCCNCCN1C(=O)c2cccc3cc([N+](=O)[O-])cc(c23)C1=O)c1cc(-c2ccccc2)nc2ccccc12 -1

====

- Procedure text: NCI Yeast Anticancer Drug Screen. Data for the bub3 strain (AID 167)
- Condition parameters: S. cerevisiae bub3 mutant strain, at 50.0 µM (retest, dose inferred, filed as 5.0), active compounds read high
- Procedure: Growth inhibition of yeast strains with defined genetic alterations is measured as a screen for potential anti-cancer activity. Selected strains with alterations in DNA damage repair or cell cycle control were exposed to compounds and growth inhibition was measured relative to vehicle treated controls. The strain used in this assay is bub3
Compounds without any hit were thinned out: in the full panel of roughly 79,000, 15% have a hit.
I'd be grateful if you could share measured growth inhibition for these entries.
Give bare numbers, in %.

Compound: CC(C)c1ccc(NC(=S)NC(=O)c2ccccc2)cc1
Scale unit: %
growth inhibition: 87

Return reported growth inhibition values for all items listed beneath this line.
1. COC1CCC(O)C(/C=C/[N+](=O)[O-])C1 (stereo not drawn)
2. COc1ccc(C/C=N/Nc2ccc([N+](=O)[O-])cc2)cc1OC
3. O=C(Nc1ccc(Cl)cc1)Nc1nnc2nc(C(C(=O)c3cccc([N+](=O)[O-])c3Cl)c3nc4nnc(NC(=O)Nc5ccc(Cl)cc5)n4[nH]c3=O)c(=O)[nH]n12
4. CCOC(=O)[C@H]1Nc2ccc(OC)cc2C2c3ccccc3CC21 (stereo partly drawn)

1. 100
2. 97
3. 22
4. 83
